Target: Voltage-gated L-type calcium channel (Rattus norvegicus, UniProt P22002+Q02485+P27732)
Experiment: Inhibition of [3H]nitrendipine binding to calcium channels in the rat brain.
Assay type: tissue-based
I'd be grateful if you could share measured IC50 for these entries.
Lab book: enter the figure in µM, no units written.

Ask: Return IC50 (reported value) for this compound: CCOC(=O)CC1=NC(C)=C(C#N)C(c2ccccc2C(F)(F)F)/C1=C(\O)OCC (centres undefined)
Reply: 0.1496

Ask: Answer with reported IC50 of CCOC(=O)C1C(/C=C(\O)c2ccccc2)=NC(C)=C(C#N)C1c1ccccc1C(F)(F)F (centres undefined)
Reply: 1.021

Ask: Assign IC50 to the following record: CCOC(=O)[C@@H]1/C(=C/C(=O)c2ccccc2)N=C(C)/C(=C(/O)OCC)[C@H]1c1cccc(Cl)c1Cl
Reply: 0.0277
